Test system: P388 leukemia ip, CD2F1 mice, survival T/C
Test: NCI In Vivo Anticancer Drug Screen. Data for tumor model P388 Leukemia (intraperitoneal) in CD2F1 (CDF1) mice
Conditions: endpoint: median survival time; dose: 50.0 mg/kg/injection; schedule: Q01DX005 (ip); vehicle: saline; higher = longer survival
Toxic doses and inconclusive results are not listed.
observable: T/C

Prompt: Name the recorded T/C for NC(=O)NC1CC2CCC1C2 (configuration not stated) .
Completion: 101 % of control

Prompt: Name the recorded T/C for CCN(CC)CCC(O)c1ccc(Cl)c2ccccc12 (configuration not stated) .
Completion: 106 % of control

Prompt: Name the recorded T/C for CN(C)CCC=C1c2ccccc2C=Cc2ccccc21 .
Completion: 112 % of control

Prompt: Name the recorded T/C for N/C=N/OCc1ccccc1 .
Completion: 101 % of control

Prompt: Name the recorded T/C for C1CCC(NC2CCCCC2)CC1 .
Completion: 100 % of control

Prompt: Name the recorded T/C for CC(=O)NC1C(Nc2ccc(S(=O)(=O)Nc3cc(C)nc(C)n3)cc2)OC(CO)C(O)C1O (configuration not stated) .
Completion: 108 % of control

Prompt: Name the recorded T/C for CC(=O)/C(=C/c1ccc(OC2OC(CO)C(O)C(O)C2O)cc1)C(=O)CCN(C)C (configuration not stated) .
Completion: 107 % of control

Prompt: Name the recorded T/C for Nc1cnc(CO)nc1C(=O)O .
Completion: 100 % of control

Prompt: Name the recorded T/C for CCN(CC)C(C)CN1c2ccccc2Sc2ccccc21 (configuration not stated) .
Completion: 100 % of control

Prompt: Name the recorded T/C for CSCCC(C(=O)O)N(CCC#N)CCC#N (configuration not stated) .
Completion: 98 % of control

Prompt: Name the recorded T/C for CC(N)C(=O)NC(CC(N)=O)C(=O)O (configuration not stated) .
Completion: 105 % of control

Prompt: Name the recorded T/C for CCOP(=O)(CS(=O)CCC1(C)NC(=O)NC1=O)OCC (configuration not stated) .
Completion: 100 % of control

---

System: P388 leukemia ip, CD2F1 mice, survival T/C
Assay: NCI In Vivo Anticancer Drug Screen. Data for tumor model P388 Leukemia (intraperitoneal) in CD2F1 (CDF1) mice
Conditions: endpoint: median survival time; dose: 200.0 mg/kg/injection; schedule: Q04DX002 (ip); vehicle: saline with Tween-80; higher = longer survival
Inconclusive results and toxic doses are left out.
Would you kindly list T/C for each of these compounds?

Prompt: Name the recorded T/C for CCOC(=O)N1CCc2cc(OC)c(O)cc2C1CC1=CC(=O)C(OC)=CC1=O (centres undefined) .
Completion: 100 % of control

Prompt: Name the recorded T/C for O=C1CCC(O)=C1C1=NCCCC1 .
Completion: 108 % of control

Prompt: Name the recorded T/C for O=c1cc(-c2ccc(Cl)cc2)c(-c2ccc(Cl)cc2)nn1CCO .
Completion: 95 % of control

Prompt: Name the recorded T/C for Clc1ccc(C2=Nc3ccccc3SC(c3ccco3)C2)cc1Cl (centres undefined) .
Completion: 96 % of control

Prompt: Name the recorded T/C for O=Cc1ccc(C=O)cc1 .
Completion: 102 % of control

Prompt: Name the recorded T/C for COC(=O)C1=C(C2=C(C(=O)OC)CCC2)CCC1 .
Completion: 97 % of control

Prompt: Name the recorded T/C for CCO[Si](CCSC(=O)N(CCCl)CCCl)(OCC)OCC .
Completion: 98 % of control

Prompt: Name the recorded T/C for CC(O)[C@H]1CC[C@H]2[C@@H]3CC(=O)[C@H]4C[C@H](O)[C@H](O)C[C@]4(C)[C@H]3CC[C@]12C (some centres undefined) .
Completion: 90 % of control

Prompt: Name the recorded T/C for C1CC[N+](=c2nc(N3CCOCC3)ss2)C1 .
Completion: 99 % of control

Prompt: Name the recorded T/C for NC(=O)CCCCCOc1ccc(OC2OC(CO)C(O)C(O)C2O)cc1 (centres undefined) .
Completion: 102 % of control

Prompt: Name the recorded T/C for CNc1ccc(O)c2c1C(=O)c1ccccc1C2=O .
Completion: 109 % of control

Prompt: Name the recorded T/C for Cc1cc(C)n(C2=NC3(c4ccc(Cl)cc4)NC(=O)NC3(c3ccc(Cl)cc3)N2)n1 (centres undefined) .
Completion: 93 % of control

Prompt: Name the recorded T/C for CN1C(=O)/C(=[N+](/[O-])c2ccccc2-c2ccccc2)c2ccccc21 .
Completion: 100 % of control

Prompt: Name the recorded T/C for CCN(CC)[Se]c1ccccc1 .
Completion: 100 % of control

---

Would you kindly list T/C for each of these compounds?
Tested on: P388 leukemia ip, CD2F1 mice, survival T/C
Experiment: NCI In Vivo Anticancer Drug Screen. Data for tumor model P388 Leukemia (intraperitoneal) in CD2F1 (CDF1) mice
Conditions: endpoint: median survival time; dose: 100.0 mg/kg/injection; schedule: Q01DX005 (ip); vehicle: Klucel (hydroxypropylcellulose) (HPC); higher = longer survival
Experimental: The antitumor activity of compounds was measured in mice bearing transplantable tumors. Survival or tumor size were measured and the results are expressed as the measurement made in the treated group (T) divided by the measurement made in the vehicle treated control group (C). The tumor model used in this assay is P388 Leukemia (intraperitoneal) in CD2F1 (CDF1) mice
Toxic doses and inconclusive results are not listed. Peptide text beside a SMILES is read from it. * marks the point of attachment. Cbz = O=C(OCc1ccccc1)*; Boc = CC(C)(C)OC(=O)*

Prompt: Name the recorded T/C for CCOC(=O)c1cnc(SC)n(-c2ccc(Cl)cc2)c1=O .
Completion: 100 % of control

Prompt: Name the recorded T/C for O=C(NCCCl)Oc1ccc(F)cc1 .
Completion: 100 % of control

Prompt: Name the recorded T/C for N#Cc1ccc(N2CCCC2)c(C#N)c1Cl .
Completion: 96 % of control

Prompt: Name the recorded T/C for Nc1cnnc2nc[nH]c12 .
Completion: 117 % of control

Prompt: Name the recorded T/C for Cc1ccc(NC(=O)N2CCCCC2)cc1[N+](=O)[O-] .
Completion: 98 % of control

Prompt: Name the recorded T/C for O=[N+]([O-])c1ccc(S(=O)(=O)c2ccc(Nc3ccnc4cc(Cl)ccc34)cc2)cc1 .
Completion: 91 % of control

Prompt: Name the recorded T/C for C/C(=C1/N=C(c2ccccc2)OC1=O)c1cccs1 .
Completion: 100 % of control

Prompt: Name the recorded T/C for NC1C(=O)NC(=O)NC1=O .
Completion: 98 % of control

Prompt: Name the recorded T/C for CN1CCC(C(C)(C)C)CC1 .
Completion: 93 % of control

Prompt: Name the recorded T/C for Cc1ccc(Nc2nnc(-c3ccc4c(c3)OCO4)o2)c(C)c1 .
Completion: 97 % of control

Prompt: Name the recorded T/C for O=C(Nc1ccc2oc3ccc(Cl)cc3c(=O)c2c1)c1ccc(Cl)cc1Cl .
Completion: 96 % of control

Prompt: Name the recorded T/C for FC(F)(F)C1(C(F)(F)F)OS2(F)(F)(OC(C(F)(F)F)(C(F)(F)F)c3ccccc32)c2ccccc21 .
Completion: 94 % of control

Prompt: Name the recorded T/C for O=c1n(-c2ccccc2)c(=O)n2n1C1CC3c4ccccc4C1C32 (stereo unspecified) .
Completion: 94 % of control

Prompt: Name the recorded T/C for COC(=O)CCC1=C(C)c2cc3[nH]c(cc4[nH]c(cc5nc(cc1n2)C(CCC(=O)OC)=C5C)c(C1CC1C(=O)OC)c4C)c(C1CC1C(=O)OC)c3C (stereo unspecified) .
Completion: 104 % of control

Prompt: Name the recorded T/C for O=CNC(CSSCC(NC=O)C(=O)O)C(=O)O (stereo unspecified) .
Completion: 101 % of control

Prompt: Name the recorded T/C for CCCC(NC(=O)OCc1ccccc1)C(=O)NC(C)C(=O)O (stereo unspecified) .
Completion: 100 % of control

Prompt: Name the recorded T/C for NC(=O)CCSC(N)=S .
Completion: 109 % of control

Prompt: Name the recorded T/C for COc1cc(N)c2ncccc2c1Br .
Completion: 104 % of control

Prompt: Name the recorded T/C for NC(=O)c1nnn2c1nc(N)c1cc(Cl)ccc12 .
Completion: 104 % of control

Prompt: Name the recorded T/C for C/C(=C\C(=O)c1cccc(F)c1)N1CCN(c2cccc(C(F)(F)F)c2)CC1 .
Completion: 94 % of control

Prompt: Name the recorded T/C for O=c1[nH]cnc2nc(Cl)[nH]c12 .
Completion: 98 % of control

Prompt: Name the recorded T/C for CC(O)C(NC(=O)OCc1ccccc1)C(=O)NC(Cc1ccccc1)C(=O)O (stereo not drawn) (Cbz-Thr-Phe-OH; configuration not given here) .
Completion: 101 % of control

Prompt: Name the recorded T/C for Nc1nc(N)c(Cc2ccccn2)cc1Cc1ccccn1 .
Completion: 103 % of control

Prompt: Name the recorded T/C for C=C(C)c1nc(N)nc(Nc2ccccc2)n1 .
Completion: 111 % of control

Prompt: Name the recorded T/C for Cc1ncc(N)c(C(=O)O)n1 .
Completion: 98 % of control

Prompt: Name the recorded T/C for CC1C(c2ccccc2)NC(c2ccccc2)C(C)C1O (stereo unspecified) .
Completion: 98 % of control

Prompt: Name the recorded T/C for C=CSS/C(=C/N(C=O)Cc1cnc(C)nc1N)CCO .
Completion: 102 % of control

Prompt: Name the recorded T/C for CC(=O)OCC1OC(n2cnc3c(Cl)nc(Cl)nc32)CC(OC(C)=O)C1OC(C)=O (stereo unspecified) .
Completion: 99 % of control

Prompt: Name the recorded T/C for N#CCc1c(-c2ccccc2)c(-c2ccccc2)c2n1CCC2 .
Completion: 99 % of control

Prompt: Name the recorded T/C for C=CCC1(OC(C)=O)CC2C(=O)C(=O)C(C1)N2OC(=O)c1ccccc1 (stereo unspecified) .
Completion: 87 % of control

Prompt: Name the recorded T/C for COc1ccc2c(c1OC)C(O)(Cc1ccccc1)OC2C1c2c(cc3c(c2OC)OCO3)CCN1C (stereo unspecified) .
Completion: 104 % of control

Prompt: Name the recorded T/C for COc1cccc(C2OC3=C(Nc4ccc(Cl)cc4N3)C2=O)c1 (stereo unspecified) .
Completion: 104 % of control

Prompt: Name the recorded T/C for CCN(c1ccccc1C(=O)O)S(=O)(=O)c1ccc(C)cc1 .
Completion: 106 % of control

Prompt: Name the recorded T/C for Cc1ccc(S(=O)(=O)NCC(Cl)C#N)cc1 (stereo unspecified) .
Completion: 106 % of control

Prompt: Name the recorded T/C for O=C(NN=C1CCCCC1)C(=O)Nc1cccc(C(F)(F)F)c1 .
Completion: 92 % of control

Prompt: Name the recorded T/C for COc1ccc2nccc(C(C)=O)c2c1 .
Completion: 98 % of control

Prompt: Name the recorded T/C for CC(C)(S)[C@H]1NC(=O)NC1=O .
Completion: 99 % of control

Prompt: Name the recorded T/C for COC(=O)C(CO)NC(=O)C(Cc1ccccc1)NC(=O)OC(C)(C)C (stereo not drawn) (Boc-Phe-Ser-OMe; configuration not given here) .
Completion: 105 % of control

Prompt: Name the recorded T/C for COc1ccc2oc3cccc(NCCN(C)C)c3c(=O)c2c1 .
Completion: 107 % of control

Prompt: Name the recorded T/C for O=C1C=C(OCc2ccccc2)C(=O)C(OCc2ccccc2)=C1 .
Completion: 100 % of control

Prompt: Name the recorded T/C for CC1=CC(=C2C(=O)c3ccccc3C2=O)C=C(C)N1CC#CCN1CCCCC1 .
Completion: 98 % of control

Prompt: Name the recorded T/C for O=C(Nc1n[nH]c(NC(=O)c2ccccc2)n1)c1ccccc1 .
Completion: 88 % of control

Prompt: Name the recorded T/C for COc1ccc2[nH]c3c(c(=O)n(C)c(=O)n3C)c2c1 .
Completion: 93 % of control

Prompt: Name the recorded T/C for C[c-]1[c-][c-][c-][c-]1.[C-]#[O+].[C-]#[O+].[C-]#[O+].[Mn] .
Completion: 99 % of control

Prompt: Name the recorded T/C for CCCCOCCOCCOCCOCCCN1C(=O)C2C3C=CC(C3)C2C1=O (stereo unspecified) .
Completion: 100 % of control

Prompt: Name the recorded T/C for N#CC1=C(O)NC(O)=C(C#N)C12C(=O)Nc1ccccc12 .
Completion: 101 % of control
